Molecular target: Clade B BaL gp120 protein (HIV-1 Clade B, BaL)
Assay: BLI (Octet), IgG on anti-hIgG Fc sensor, gp120 analyte, 1:1 fit
METRIC: kon (M⁻¹ s⁻¹)
Value expressed in M⁻¹ s⁻¹; do not type the unit.

Sample NglycoNDplus6 (antibody, V domains shown) VH: ADLVQSGAVVKKPGDSVRISCEAQGYTFPDYIIHWIRRAPGQGPEWMGWMNPMGGQVNIPWKFQGRVSMTRDTSIETAFLDLRGLKSDDTAVYYCVRDRGDGSRRHFDSSNWFLDLWGRGTAVTIQS VL: QSALTQPRSVSASPGQSVTISCTGTHNLVSWCQHQPGRAPKLLIYDFNKRPSGVPDRFSGSGSGGTASLTITGLQDDDDAEYFCWAYEAFGGGTKLTVL — what was its kon?
53300

Sample Germ23 (antibody, V domains shown) VH: QVQLVQSGAEVKKPGASVKVSCEASGYRFPDYIIHWIRRAPGQGPEWMGWMNPMGGQVNIPWKFQGRVSMTRDTSIETAYMELRGLRSDDTAVYYCVRDRSNGSGKRFESSNWFLDLWGRGTLVTVSS VL: QSALTQPRSVSGSPGQSVTISCTGTHNLVSWCQHHPGKAPKLMIYDFNKRPSGVPDRFSGSGSGGTASLTISGLQAEDEAEYFCWAYEAFGGGTKLTVL — what was its kon?
79100

Sample CysCA (antibody, V domains shown) VH: ADLVQSGAVVKKPGDSVRISCEAQGYRFPDYIIHWIRRAPGQGPEWMGWMNPMGGQVNIPWKFQGRVSMTRDTSIETAFLDLRGLKSDDTAVYYCVRDRSNGSGKRFESSNWFLDLWGRGTAVTIQS VL: QSALTQPRSVSASPGQSVTISCTGTHNLVSWAQHQPGRAPKLLIYDFNKRPSGVPDRFSGSGSGGTASLTITGLQDDDDAEYFCWAYEAFGGGTKLTVL — what was its kon?
71900
